# Assayed system: ENaC (Epithelial Sodium Channel) (Mus musculus, UniProt Q61180+Q9WU38+Q9WU39)
# Construct: Mouse kidney M-1 cells were cultivated in DMEM; endogenous in cells; host or cells: mouse kidney M-1 cells
# Sequence (Q61180 1-699): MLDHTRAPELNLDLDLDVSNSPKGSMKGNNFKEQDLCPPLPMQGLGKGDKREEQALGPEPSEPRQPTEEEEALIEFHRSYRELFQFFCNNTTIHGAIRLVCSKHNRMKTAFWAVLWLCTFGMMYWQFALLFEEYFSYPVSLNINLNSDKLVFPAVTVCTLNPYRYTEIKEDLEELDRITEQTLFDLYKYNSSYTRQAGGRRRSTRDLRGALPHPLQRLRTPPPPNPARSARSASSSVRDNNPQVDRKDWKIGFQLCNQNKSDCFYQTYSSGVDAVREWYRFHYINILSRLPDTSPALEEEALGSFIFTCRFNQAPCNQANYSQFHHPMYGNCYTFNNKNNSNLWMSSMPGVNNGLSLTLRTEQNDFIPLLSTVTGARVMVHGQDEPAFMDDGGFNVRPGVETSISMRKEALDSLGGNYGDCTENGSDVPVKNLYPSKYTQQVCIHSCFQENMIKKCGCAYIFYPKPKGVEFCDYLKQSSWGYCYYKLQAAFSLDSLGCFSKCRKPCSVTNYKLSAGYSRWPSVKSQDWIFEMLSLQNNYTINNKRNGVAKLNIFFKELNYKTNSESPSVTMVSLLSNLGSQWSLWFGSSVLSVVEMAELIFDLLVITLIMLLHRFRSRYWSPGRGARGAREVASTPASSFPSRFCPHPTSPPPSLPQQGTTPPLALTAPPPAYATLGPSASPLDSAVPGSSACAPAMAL
# Sequence (Q9WU38 1-638): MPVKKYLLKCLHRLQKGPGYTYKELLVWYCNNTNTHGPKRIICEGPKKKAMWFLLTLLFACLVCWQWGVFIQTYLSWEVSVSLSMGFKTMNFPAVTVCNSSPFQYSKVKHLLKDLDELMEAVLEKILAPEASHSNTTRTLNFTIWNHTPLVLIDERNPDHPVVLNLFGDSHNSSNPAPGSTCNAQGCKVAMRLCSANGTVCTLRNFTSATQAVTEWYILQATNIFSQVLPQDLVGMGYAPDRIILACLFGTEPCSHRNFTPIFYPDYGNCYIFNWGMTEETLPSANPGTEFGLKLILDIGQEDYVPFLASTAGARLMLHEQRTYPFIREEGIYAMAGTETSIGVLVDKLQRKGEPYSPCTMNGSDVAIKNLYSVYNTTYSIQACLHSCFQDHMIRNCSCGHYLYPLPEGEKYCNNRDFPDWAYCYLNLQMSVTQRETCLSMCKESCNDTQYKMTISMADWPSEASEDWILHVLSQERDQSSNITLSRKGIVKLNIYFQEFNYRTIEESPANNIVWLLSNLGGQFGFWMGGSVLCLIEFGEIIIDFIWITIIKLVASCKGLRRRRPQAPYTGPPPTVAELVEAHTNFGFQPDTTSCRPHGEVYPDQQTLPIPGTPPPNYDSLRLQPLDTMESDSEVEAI
# Sequence (Q9WU39 1-655): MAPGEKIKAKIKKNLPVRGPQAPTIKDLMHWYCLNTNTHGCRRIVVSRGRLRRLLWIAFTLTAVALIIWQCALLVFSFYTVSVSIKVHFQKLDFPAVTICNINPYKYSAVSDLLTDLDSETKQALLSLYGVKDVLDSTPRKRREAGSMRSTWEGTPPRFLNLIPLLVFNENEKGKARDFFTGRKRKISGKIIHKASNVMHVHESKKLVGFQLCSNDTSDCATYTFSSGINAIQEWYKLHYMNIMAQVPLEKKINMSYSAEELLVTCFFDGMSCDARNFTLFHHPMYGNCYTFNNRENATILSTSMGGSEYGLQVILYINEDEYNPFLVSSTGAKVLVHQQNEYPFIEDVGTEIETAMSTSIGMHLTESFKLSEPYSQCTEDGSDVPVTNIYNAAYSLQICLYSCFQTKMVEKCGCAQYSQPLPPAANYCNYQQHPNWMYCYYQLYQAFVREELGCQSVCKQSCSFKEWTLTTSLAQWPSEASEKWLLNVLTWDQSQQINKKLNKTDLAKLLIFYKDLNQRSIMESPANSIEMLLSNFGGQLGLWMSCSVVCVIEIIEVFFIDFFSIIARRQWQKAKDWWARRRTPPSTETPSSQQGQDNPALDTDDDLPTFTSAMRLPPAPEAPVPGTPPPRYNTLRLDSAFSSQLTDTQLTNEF
# Procedure text: Ussing chamber: short circuit current in M-1 cells
# Format: cell-based
# Applied conditions: Ussing chamber, mouse kidney M-1 cells, amiloride sensitive I_SC, apical application, 37° C.; read-out: IC50
Outcome measure: IC50 (nM)
The reply should be a number in nM, with the unit left off.

# Molecule, Measure unit, IC50
measured = [
    ("CCn1c(CNC(=O)c2nc(Cl)c(N)nc2N)[n+](CC)c2ccc(OCCNCC(=O)[O-])cc21 [Example 5.1]", "nM", 5),
    ("CCNC(=O)c1cc2c(cc1OCC(=O)N1CCNCC1)n(CC)c(CNC(=O)c1nc(Cl)c(N)nc1N)[n+]2CC [Example 6.3]", "nM", 4),
    ("CCn1c(CNC(=O)c2nc(Cl)c(N)nc2N)[n+](CC)c2cc(F)c(C(=O)N3CCOCC3)cc21 [Example 3.12]", "nM", 0.4),
    ("CCn1c(CNC(=O)c2nc(Cl)c(N)nc2N)[n+](CC)c2ccc(OCCNC(=N)N)cc21 [Example 10.1]", "nM", 0.3),
    ("CCn1c(CNC(=O)c2nc(Cl)c(N)nc2N)[n+](C[C@H](C)O)c2cc(OCCN)ccc21 [Example 1.7]", "nM", 2),
    ("CCn1c(CNC(=O)c2nc(Cl)c(N)nc2N)[n+](CC)c2ccc(O[C@H](C)C(=O)N3CCNC(=O)C3)cc21 [Example 3.3]", "nM", 1),
    ("CCn1c(CNC(=O)c2nc(Cl)c(N)nc2N)[n+](CC)c2ccc(OCCNCC(=O)OC)cc21 [Example 9.1]", "nM", 2),
    ("CCn1c(CNC(=O)c2nc(Cl)c(N)nc2N)[n+](CC)c2ccc(CNC(=O)CN(C)C)cc21.[Cl-] [Example 7.1]", "nM", 2),
    ("CCNC(=O)COc1ccc2c(c1)n(C(C)C)c(CNC(=O)c1nc(Cl)c(N)nc1N)[n+]2CC [Example 3.4]", "nM", 1),
    ("CCn1c(CNC(=O)c2nc(Cl)c(N)nc2N)[n+](CC)c2ccc(OCCNC(=O)C[N+](C)(C)C)cc21 [Example 8.1]", "nM", 0.4),
]

**Q:** Any idea what IC50 was measured for CCn1c(CNC(=O)c2nc(Cl)c(N)nc2N)[n+](CC)c2ccc(OCCCP(=O)([O-])O)cc21 [Example 4.1] ?
**A:** 11

**Q:** So what's the measured IC50 for this one? CCOP(=O)([O-])CCCOc1ccc2c(c1)n(CC)c(CNC(=O)c1nc(Br)c(N)nc1N)[n+]2CCOC [Example 2.1]
**A:** 16

**Q:** IC50 for CCn1c(CNC(=O)c2nc(Cl)c(N)nc2N)[n+](CC)c2cc(Cl)c(O[C@H]3CO[C@H]4[C@@H]3OC[C@@H]4O)cc21 [Example 1.5] ?
**A:** 1

**Q:** Which IC50 reading was recorded for the molecule CCNC(=O)[C@H](C)Oc1ccc2c(c1)n(CC)c(CNC(=O)c1nc(Cl)c(N)nc1N)[n+]2CC [Example 3.6] ?
**A:** 1

**Q:** Looking for the measured IC50 of CCn1c(CNC(=O)c2nc(Cl)c(N)nc2N)[n+](CC)c2cc(Cl)c(N(CCO)CCO)cc21 [Example 1.3] , can you help?
**A:** 2
